Values compiled from patent US9309212B2.

targetEntity: EBNA1 (Epstein-Barr virus, UniProt P03211)
Sequence (P03211 whole entry): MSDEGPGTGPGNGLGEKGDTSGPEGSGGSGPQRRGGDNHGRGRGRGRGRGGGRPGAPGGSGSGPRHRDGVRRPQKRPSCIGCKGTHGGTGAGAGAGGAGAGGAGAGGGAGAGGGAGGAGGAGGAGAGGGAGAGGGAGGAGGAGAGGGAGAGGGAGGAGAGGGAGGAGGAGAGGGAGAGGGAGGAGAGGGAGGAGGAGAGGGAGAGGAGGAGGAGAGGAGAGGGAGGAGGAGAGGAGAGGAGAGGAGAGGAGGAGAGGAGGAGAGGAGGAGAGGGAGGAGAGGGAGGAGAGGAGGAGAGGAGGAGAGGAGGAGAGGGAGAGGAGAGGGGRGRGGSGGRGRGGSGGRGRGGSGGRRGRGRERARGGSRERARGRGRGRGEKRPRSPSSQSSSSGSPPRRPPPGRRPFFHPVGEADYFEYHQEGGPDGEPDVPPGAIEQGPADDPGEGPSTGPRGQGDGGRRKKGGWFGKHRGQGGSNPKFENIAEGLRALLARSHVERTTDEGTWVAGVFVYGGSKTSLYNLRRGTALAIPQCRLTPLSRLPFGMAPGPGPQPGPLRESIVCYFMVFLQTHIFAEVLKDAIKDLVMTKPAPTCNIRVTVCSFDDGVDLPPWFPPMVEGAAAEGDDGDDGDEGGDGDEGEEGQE
methodNotes: cell-based assay (EBNA1 transcription derepression assay, Qp-luciferase reporter in 293T cells)
conditionInfo: final concentration range 125 μM-2 nM, 125000 nM = not active
pIC50: −log10 of the molar value.

{"molecule": "CCCCc1ccc(C(=O)Oc2ccc3occ([N+](=O)[O-])c3c2)cc1 [VKE01453]", "boundType": "=", "pIC50": 5.91}
{"molecule": "Cc1cc(C)cc(CC(=O)Oc2ccc3occ([N+](=O)[O-])c3c2)c1 [VKE01452]", "boundType": "<", "pIC50": 3.90}
{"molecule": "O=C(Nc1ccc2occc2c1)c1ccc(C(F)(F)F)cc1 [VKE01458]", "boundType": "=", "pIC50": 8.32}
{"molecule": "O=C(Nc1ccc2occc2c1)c1ccno1 [VKE01466]", "boundType": "=", "pIC50": 4.08}
{"molecule": "O=[N+]([O-])c1coc2ccc(OCc3ccc(OC(F)(F)F)cc3)cc12 [VKE01456]", "boundType": "=", "pIC50": 4.85}
{"molecule": "O=C(Oc1ccc2occ([N+](=O)[O-])c2c1)c1ncccc1C(F)(F)F [VKE01446]", "boundType": "<", "pIC50": 3.90}
{"molecule": "CC(C)(C)c1ccc(OC(=O)c2ccc3occc3c2)cc1 [VKE01442]", "boundType": "=", "pIC50": 5.58}
{"molecule": "O=C(Nc1ccccc1F)c1ccc2occc2c1 [VKE01467]", "boundType": "=", "pIC50": 6.17}
{"molecule": "O=[N+]([O-])c1coc2ccc(OCc3ccc(Cl)cc3)cc12 [VKE01454]", "boundType": "=", "pIC50": 5.01}
{"molecule": "O=C(Oc1ccc2occ([N+](=O)[O-])c2c1)c1ccc(N2CCOCC2)cc1 [VKE01448]", "boundType": "=", "pIC50": 4.51}
